- TARGET_OR_TEST_SYSTEM: GlcNAc(a1-4)Gal(b1-4)GalNAc
- ASSAY_NOTES: glycan array binding signal (z-score within array); higher = stronger binding
- MEASUREMENT_CONTEXT: glycan notation: IUPAC condensed, linker removed
Shown is part of a subset that was picked to be rich in the strongest signals.
PROPERTY: glycan array binding signal (z-score)
Numbers only.

Consider the following illustrative entries.
[[record]]
binder = "SRS6 (Toxoplasma gondii), Q9NH12 (protein) MARTGSMQQRRGGFQTTARMLMAVCVSGVLLLSSGPSSANKLTEGQQNQNSGPGAATQEGPTIEGAVAKCVLKTTAAENGSSRAKNTTGLTLSKENLVVSLQCSGEKNAIVPKDQKKVCSAAPNAKVADCKGADTDKQVTLKSLLGTSGDIQWEKTIVSTDNKGEVMTLKIKESELPLFDKAFFVGCEEDKAQTRTSQATECKVNVSVKARPSTVGENNVVTCAYGKDSNPRPLEVEMSADNDTLTIDCGTDGSLKPTKYTEEFCVTDNSQLESCTTKKFSEILPTFLPSWWVSDSQNGSAKLTIPESGFPEEQQQFRLGCVPKKTTQSPQANPSVKTEKEEGAQNTDASTSNCSVIVTVKASNFSSLASSIAPTAAVAGGAAALTGFLVGSF"
reading = 0.375

[[record]]
binder = "BC2L-A (Burkholderia cenocepacia), Q1BKJ8_BURCA (protein) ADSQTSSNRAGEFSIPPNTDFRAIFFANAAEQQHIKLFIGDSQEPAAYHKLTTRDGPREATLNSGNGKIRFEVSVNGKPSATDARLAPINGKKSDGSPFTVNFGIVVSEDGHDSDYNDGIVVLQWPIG"
reading = -0.296


Note: attention shifts to another entry.
# input Returns the measured glycan array binding signal (z-score) for the input binder. Input: Epa2 (Candida glabrata) (protein) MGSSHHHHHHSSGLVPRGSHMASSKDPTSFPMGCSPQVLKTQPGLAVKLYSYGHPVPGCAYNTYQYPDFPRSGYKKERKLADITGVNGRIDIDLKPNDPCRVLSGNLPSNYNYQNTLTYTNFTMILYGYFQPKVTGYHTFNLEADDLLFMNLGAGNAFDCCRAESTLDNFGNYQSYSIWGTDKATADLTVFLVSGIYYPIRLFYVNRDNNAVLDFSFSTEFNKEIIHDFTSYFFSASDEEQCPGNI
# output -0.65

Taken from the supplement of paper PMC8728848.
